Molecular target: MBP-FoxP3dN (Mus musculus, UniProt Q99JB6 188-423)
Sequence: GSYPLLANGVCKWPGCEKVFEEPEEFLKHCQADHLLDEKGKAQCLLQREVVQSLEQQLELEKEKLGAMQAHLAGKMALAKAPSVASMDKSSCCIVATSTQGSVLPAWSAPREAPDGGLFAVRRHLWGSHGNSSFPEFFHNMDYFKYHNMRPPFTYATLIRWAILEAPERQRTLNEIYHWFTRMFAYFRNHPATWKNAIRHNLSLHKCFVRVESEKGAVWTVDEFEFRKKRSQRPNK
Experiment: PD-seq (MBP pull-down with sequencing); 20 mM Tris-HCl pH 7.5, 100 mM NaCl, 1.5 mM MgCl2, 0.4 uM protein, 0.1 uM dsDNA library, 30 min, room temperature, amylose pull-down; high values mean tight binding
Conditions: protein: recombinant; tags: His6-MBP; chain copies: 2; dsDNA, one strand shown
Whole data set: some 16,000 sequences, median “rpm ratio (pull-down/input)” near 0.5, cut for the highest 2% near 5.5. What follows is part of a selection rich in the highest values, with near analogues and random picks from the rest.
Can you tell me binding signal for the items I'm about to list?

What the record says about "GATGATTGTTCTCCCAGCTGATGAATTATATGTATCGAGTAAACAAATTTTCCTAATCTTTCTGTTCAAGCGCCATCTAC" : binding signal is 2.22 RPM ratio (pull-down/input)

What the record says about "GATGATTGTTCTCCCAGCTGATGAATTAGATAGCTCGAGTAAACAAATTTTCCTAATCTTTCTGTTCAAGCGCCATCTAC" : binding signal is 0.537 RPM ratio (pull-down/input)

What the record says about "GATGATTGTTCTCCCAGCTGATGAATTTGAGCACTCGAGTAAACAAATTTTCCTAATCTTTCTGTTCAAGCGCCATCTAC" : binding signal is 0.481 RPM ratio (pull-down/input)

What the record says about "GATGATTGTTCTCCCAGCTGATGAATTATGTATCTCGAGTAAACAAATTTTCCTAATCTTTCTGTTCAAGCGCCATCTAC" : binding signal is 5.75 RPM ratio (pull-down/input)

What the record says about "GATGATTGTTCTCCCAGCTGATGAATTATGTATATCGAGTAAACAAATTTTCCTAATCTTTCTGTTCAAGCGCCATCTAC" : binding signal is 5.96 RPM ratio (pull-down/input)

What the record says about "GATGATTGTTCTCCCAGCTGATGAATTGTCCCGCTCGAGTAAACAAATTTTCCTAATCTTTCTGTTCAAGCGCCATCTAC" : binding signal is 0.272 RPM ratio (pull-down/input)

What the record says about "GATGATTGTTCTCCCAGCTGATGAATTAATTCTGTCGAGTAAACAAATTTTCCTAATCTTTCTGTTCAAGCGCCATCTAC" : binding signal is 0.249 RPM ratio (pull-down/input)

What the record says about "GATGATTGTTCTCCCAGCTGATGAATTACTGGGGTCGAGTAAACAAATTTTCCTAATCTTTCTGTTCAAGCGCCATCTAC" : binding signal is 0.231 RPM ratio (pull-down/input)

What the record says about "GATGATTGTTCTCCCAGCTGATGAATTAGGTTGGTCGAGTAAACAAATTTTCCTAATCTTTCTGTTCAAGCGCCATCTAC" : binding signal is 1.62 RPM ratio (pull-down/input)

What the record says about "GATGATTGTTCTCCCAGCTGATGAATTGCGCTGATCGAGTAAACAAATTTTCCTAATCTTTCTGTTCAAGCGCCATCTAC" : binding signal is 0.898 RPM ratio (pull-down/input)

What the record says about "GATGATTGTTCTCCCAGCTGATGAATTATGTGTATCGAGTAAACAAATTTTCCTAATCTTTCTGTTCAAGCGCCATCTAC" : binding signal is 5.73 RPM ratio (pull-down/input)

What the record says about "GATGATTGTTCTCCCAGCTGATGAATTGGTTGGTTCGAGTAAACAAATTTTCCTAATCTTTCTGTTCAAGCGCCATCTAC" : binding signal is 3.77 RPM ratio (pull-down/input)

What the record says about "GATGATTGTTCTCCCAGCTGATGAATTATGTATTTCGAGTAAACAAATTTTCCTAATCTTTCTGTTCAAGCGCCATCTAC" : binding signal is 4.76 RPM ratio (pull-down/input)

What the record says about "GATGATTGTTCTCCCAGCTGATGAATTGCTTTCATCGAGTAAACAAATTTTCCTAATCTTTCTGTTCAAGCGCCATCTAC" : binding signal is 1.04 RPM ratio (pull-down/input)

What the record says about "GATGATTGTTCTCCCAGCTGATGAATTTTATGTATCGAGTAAACAAATTTTCCTAATCTTTCTGTTCAAGCGCCATCTAC" : binding signal is 3.53 RPM ratio (pull-down/input)
